Test system: Serratia marcenscens IFO 12648
Experiment Description: Minimum inhibitory concentration (MIC), standard method of the Japanese Chemotherapeutic Association
Assay type: cell-based
Particulars: IFO12648, read-out: Minimum Inhibitory Concentration (MIC)
# MIC per entry
Return type: number; implicit unit µg/mL.

Compound: Cc1nnc(SCC2=C(C(=O)O)N3C(=O)C(NC(=O)[C@H](NC(=O)N4CCN(N=C5SCCS5)C4=O)c4ccccc4)C3SC2)s1 (single isomer, unassigned)
System Tested: Serratia marcenscens IFO 12648
MIC (µg/mL): 1.56

MIC reading for Cn1nnnc1SCC1=C(C(=O)O)N2C(=O)C(NC(=O)[C@H](NC(=O)N3CCN(N=C4SCCS4)C3=O)c3ccc(O)cc3)C2SC1 (single isomer, unassigned) : 1.56

MIC reading for CC(=O)OCC1=C(C(=O)O)N2C(=O)C(NC(=O)[C@H](NC(=O)N3CCN(N=C4SCCS4)C3=O)c3ccccc3)C2SC1 (single isomer, unassigned) : 6.25

###

System: Pseudomonas aeruginosa IFO 3080
Experiment Description: Minimum inhibitory concentration (MIC), standard method of the Japanese Chemotherapeutic Association
Assay type: cell-based
Particulars: IFO3080, read-out: Minimum Inhibitory Concentration (MIC)
# MIC per entry
Return type: number; implicit unit µg/mL.

Example entries begin here.
Molecule: Cc1nnc(SCC2=C(C(=O)O)N3C(=O)C(NC(=O)[C@H](NC(=O)N4CCN(N=C5SCCS5)C4=O)c4ccccc4)C3SC2)s1 (single isomer, unassigned)
U: µg/mL
MIC: 1.56
//
Molecule: Cn1nnnc1SCC1=C(C(=O)O)N2C(=O)C(NC(=O)[C@H](NC(=O)N3CCN(N=C4SCCS4)C3=O)c3ccccc3)C2SC1 (single isomer, unassigned)
U: µg/mL
MIC: 1.56

Next item in the queue.
Result for Cn1nnnc1SCC1=C(C(=O)O)N2C(=O)C(NC(=O)[C@H](NC(=O)N3CCN(N=C4SCCS4)C3=O)c3ccc(O)cc3)C2SC1 (single isomer, unassigned) , tested on Pseudomonas aeruginosa IFO 3080, MIC: 1.56

###

System: Escherichia coli MEGAWA
Experiment Description: Minimum inhibitory concentration (MIC), standard method of the Japanese Chemotherapeutic Association
Assay type: cell-based
Particulars: Escherichia coli; Inoculum size: 10^6 cells/ml; weight concentration; read-out: Minimum Inhibitory Concentration (MIC)
Readout Kind: MIC (mg/L)
Return type: number; implicit unit mg/L.

Example entries begin here.
Compound: Cn1nnnc1SCC1=C(C(=O)O)N2C(=O)C(NC(=O)[C@H](NC(=O)N3CCN(N=C4SCCS4)C3=O)c3ccc(O)cc3)C2SC1 (single isomer, unassigned)
System Tested: Escherichia coli MEGAWA
MIC (mg/L): 6.25
--
Compound: CC(=O)OCC1=C(C(=O)O)N2C(=O)C(NC(=O)[C@H](NC(=O)N3CCN(N=C4SCCS4)C3=O)c3ccccc3)C2SC1 (single isomer, unassigned)
System Tested: Escherichia coli MEGAWA
MIC (mg/L): 25
--
Compound: Cn1nnnc1SCC1=C(C(=O)O)N2C(=O)C(NC(=O)[C@H](NC(=O)N3CCN(N=C4SCCS4)C3=O)c3ccccc3)C2SC1 (single isomer, unassigned)
System Tested: Escherichia coli MEGAWA
MIC (mg/L): 6.25

Next item in the queue.
MIC reading for Cc1nnc(SCC2=C(C(=O)O)N3C(=O)C(NC(=O)[C@H](NC(=O)N4CCN(N=C5SCCS5)C4=O)c4ccccc4)C3SC2)s1 (single isomer, unassigned) : 6.25

###

# MIC per entry for Shigella dysenteriae IID 633
Return type: number; implicit unit µg/mL.

MIC reading for Cn1nnnc1SCC1=C(C(=O)O)N2C(=O)C(NC(=O)[C@H](NC(=O)N3CCN(N=C4SCCS4)C3=O)c3ccccc3)C2SC1 (single isomer, unassigned) : 0.2

MIC reading for Cc1nnc(SCC2=C(C(=O)O)N3C(=O)C(NC(=O)[C@H](NC(=O)N4CCN(N=C5SCCS5)C4=O)c4ccccc4)C3SC2)s1 (single isomer, unassigned) : 0.39

MIC reading for CC(=O)OCC1=C(C(=O)O)N2C(=O)[C@@H](NC(=O)Cc3cccs3)[C@H]2SC1 [CET, cephalothin, reference compound] : 0.78

MIC reading for CC1=C(C(=O)O)N2C(=O)[C@@H](NC(=O)[C@H](N)c3ccccc3)[C@H]2SC1 [CEX, cephalexin, reference compound] : 3.13

MIC reading for CC(=O)OCC1=C(C(=O)O)N2C(=O)C(NC(=O)[C@H](NC(=O)N3CCN(N=C4SCCS4)C3=O)c3ccccc3)C2SC1 (single isomer, unassigned) : 0.78
